These measurements were taken from the supplement of paper PMC13380429.

# Lookup of reported cell viability keyed by entry
Test system: Vero E6
experiment.notes: cell viability relative to DMSO; higher = less toxic
run.parameters: 72 h; 10 nM
Field format: number, assumed %, no unit text.

Study these solved cases before continuing.
compound: C=CCN1C[C@H](C(=O)N(CCCN(C)C)C(=O)NCC)C[C@@H]2c3cccc4[nH]cc(c34)C[C@H]21
cell viability / %: 98
//
compound: CCCCCCCCCCCCCCCCCC(=O)OCC(O)CO (centres undefined)
cell viability / %: 106
//
compound: Cc1ccc(CC2(O)CCN(CCOc3ccc(O)cc3)CC2)cc1
cell viability / %: 101
//
compound: C#C[C@]1(O)CC[C@H]2[C@@H]3CCC4=CC(=NO)CC[C@@H]4[C@H]3CC[C@@]21CC (mixture of isomers)
cell viability / %: 101
//
compound: NCCCC[C@H](N[C@@H](CCc1ccccc1)C(=O)O)C(=O)N1CCC[C@H]1C(=O)O
cell viability / %: 105
//
compound: CC(C)=CCC/C(C)=C/CC/C(C)=C/CC[C@]1(C)CCc2cc(O)cc(C)c2O1
cell viability / %: 93.1
//
compound: O=C(O)C1=CO[C@@H](O[C@@H]2O[C@H](CO)[C@@H](O)[C@H](O)[C@H]2O)[C@@H]2C(CO)=CC[C@H]12
cell viability / %: 107
//
compound: C1N2CN3CN1CN(C2)C3
cell viability / %: 92.3
//
compound: CCCOc1ccc2[nH]c(NC(=O)OC)nc2c1
cell viability / %: 96.3
//
compound: Oc1nc(-c2ccc(C(F)(F)F)cc2)nc2c1CSCC2
cell viability / %: 98.5

For the compound `C=C1CC[C@H](O)C/C1=C/C=C1\CCC[C@]2(C)[C@@H]([C@H](C)CCCC(C)(C)O)CC[C@@H]12` , give its reported cell viability. 95

For the compound `OC(c1ccc(-c2ccc(CN3CCN(Cc4ccncc4)CC3)cc2)c(F)c1)(C(F)(F)F)C(F)(F)F` , give its reported cell viability. 99.8

For the compound O=C(O)/C=C1\CCCc2ccccc2[C@H]1O (racemic) , give its reported cell viability. 97.2

----------
Tested on: HepG2
experiment.notes: cell viability relative to DMSO; higher = less toxic
run.parameters: 72 h; 10 nM
# Lookup of reported cell viability keyed by entry
Phrase the answer as number then unit, nothing more needed.

compound: CSc1ccc([C@H]2CN3CCC[C@H]3c3ccccc32)cc1 (racemic) [McN-5652-(+/-)]
tested.on: HepG2
measurement.type: cell viability
recorded.measurement: 89.9%
--
compound: CCOC(=O)c1ncn2c1CN(C)C(=O)c1cc(N=[N+]=[N-])ccc1-2 [Ro-15-4513]
tested.on: HepG2
measurement.type: cell viability
recorded.measurement: 92.2%

For the compound O=[N+]([O-])c1ccc(O)c([N+](=O)[O-])c1 [2,4-dinitrophenol] , give its reported cell viability. 89.5%

----------
# Lookup of reported cell viability keyed by entry
Tested on: Calu-3
experiment.notes: cell viability relative to DMSO; higher = less toxic
run.parameters: 72 h; 10000 nM
Field format: number, assumed %, no unit text.

compound: O=C(O)C(F)(F)C(F)(F)C(F)(F)C(F)(F)C(F)(F)C(F)(F)C(F)(F)F [ammonium-perfluorocaprylate]
recorded.measurement: 99.3

Please look at the following compound next.
For the compound CCCN(C/C=C/I)C1CCc2cccc(O)c2C1 (stereo not given) [8-hydroxy-PIPAT] , give its reported cell viability. 99.5
